TEST_SUMMARY: Single dose oral pharmacokinetic study
Format: in vivo
EXPERIMENTAL_PARAMETERS: mouse; Mice oral PK @30 mg/kg; plasma; vehicle 10% Solutol+20% PEG; read-out: Cmax
For each of the compounds below, state its Cmax.
Form entry: value (µg/mL) — number only.

Q: Give the measured Cmax of CC(C)C1=C2[C@H]3CC[C@@H]4[C@@]5(C)CC[C@H](OC(=O)[C@H]6C[C@@H](C(=O)O)C6(C)C)C(C)(C)[C@@H]5CC[C@@]4(C)[C@]3(C)CC[C@@]2(NC(=O)C(C)(C)NC(=O)c2ccccc2)CC1=O [Example 3] .
Result: 29.6

Q: For the compound Cc1cc(C(=O)NC(C)(C)C(=O)N[C@@]23CC[C@]4(C)[C@H](CC[C@@H]5[C@@]6(C)CC[C@H](OC(=O)[C@H]7C[C@@H](C(=O)O)C7(C)C)C(C)(C)[C@@H]6CC[C@]54C)C2=C(C(C)C)C(=O)C3)c(C)o1 [Example 33] , what Cmax is on record?
Result: 11.4

====

For each entry below, report its Cmax value.
TEST_SUMMARY: Single dose oral pharmacokinetic study
Format: in vivo
EXPERIMENTAL_PARAMETERS: mouse; Mice oral PK @30 mg/kg; plasma; vehicle 10% Solutol+20% PEG; read-out: Cmax
Experimental: The test item was administered through oral route to animals (rat/mice) at 30 mg/kg dose in a suitable vehicle (10% Solutol+20% PEG) at 10 ml/kg dose volume. […] Standard solutions of the test compound 1 mg/mL solutions were prepared in DMSO and further dilutions were made in methanol. […] After reconstitution with solvent (50% Acetonitrile in Buffer) samples were analyzed by LCMSMS to get the concentrations to calculate PK Parameters.
A number alone suffices; assume ng/mL.

Q: Fill blank: measured Cmax of the molecule `Cc1cccc(C(=O)NC(C)(C)C(=O)N[C@@]23CC[C@]4(C)[C@H](CC[C@@H]5[C@@]6(C)CC[C@H](OC(=O)[C@H]7C[C@@H](C(=O)O)C7(C)C)C(C)(C)[C@@H]6CC[C@]54C)C2=C(C(C)C)C(=O)C3)n1` is ____.
Result: 20200

Q: Look up Cmax: `CC(C)C1=C2[C@H]3CC[C@@H]4[C@@]5(C)CC[C@H](OC(=O)[C@H]6C[C@@H](C(=O)O)C6(C)C)C(C)(C)[C@@H]5CC[C@@]4(C)[C@]3(C)CC[C@@]2(NC(=O)C2(NC(=O)c3ccc(Cl)cc3)CCCCC2)CC1=O`
Result: 20300

====

TEST_SUMMARY: Cyto-toxicity (MTT assay)
Assay type: cell-based
Please respond with fulfilled when measured viability at 4 days, 1 µM is strictly beneath 4%, and with not fulfilled in all other cases.

Q: Input Cc1ccc(C(=O)NC2(C(=O)N[C@@]34CC[C@]5(C)[C@H](CC[C@@H]6[C@@]7(C)CC[C@H](OC(=O)[C@H]8C[C@@H](C(=O)O)C8(C)C)C(C)(C)[C@@H]7CC[C@]65C)C3=C(C(C)C)C(=O)C4)CCCCC2)cc1 [Example 50] ; condition: viability at 4 days, 1 µM strictly below 4%. Does it hold?
Result: fulfilled

Q: Lab note: confirm whether the reported viability at 4 days, 1 µM for this compound is below 4%, equality not counting. compound: CC(C)C1=C2[C@H]3CC[C@@H]4[C@@]5(C)CC[C@H](OC(=O)[C@H]6C[C@@H](C(=O)O)C6(C)C)C(C)(C)[C@@H]5CC[C@@]4(C)[C@]3(C)CC[C@@]2(NC(=O)C(C)(C)NC(=O)[C@@H]2CCCN2C(=O)OC(C)(C)C)CC1=O [Example 8]
Result: fulfilled

Q: Determine if Cc1ccc(C(=O)NC2(C(=O)N[C@@]34CC[C@]5(C)[C@H](CC[C@@H]6[C@@]7(C)CC[C@H](OC(=O)[C@H]8C[C@@H](C(=O)O)C8(C)C)C(C)(C)[C@@H]7CC[C@]65C)C3=C(C(C)C)C(=O)C4)CC2)cn1 [Example 38] shows viability at 4 days, 1 µM strictly lower than 4%.
Result: fulfilled

Q: Answer whether the compound CC(C)C1=C2[C@H]3CC[C@@H]4[C@@]5(C)CC[C@H](OC(=O)[C@H]6C[C@@H](C(=O)O)C6(C)C)C(C)(C)[C@@H]5CC[C@@]4(C)[C@]3(C)CC[C@@]2(NC(=O)C(C)(C)NCC2(c3ccc(Cl)cc3)CC2)CC1=O [Example 69] has viability at 4 days, 1 µM strictly less than 4%
Result: not fulfilled

Q: Problem: For the compound CC(C)C1=C2[C@H]3CC[C@@H]4[C@@]5(C)CC[C@H](OC(=O)[C@H]6C[C@@H](C(=O)O)C6(C)C)C(C)(C)[C@@H]5CC[C@@]4(C)[C@]3(C)CC[C@@]2(NC(=O)C(C)(C)NS(C)(=O)=O)CC1=O [Example 63] , is viability at 4 days, 1 µM under 4%?
Result: fulfilled

Q: is_below(viability at 4 days, 1 µM, 4%) for CC(C)C1=C2[C@H]3CC[C@@H]4[C@@]5(C)CC[C@H](OC(=O)[C@H]6C[C@@H](C(=O)O)C6(C)C)C(C)(C)[C@@H]5CC[C@@]4(C)[C@]3(C)CC[C@@]2(NC(=O)C(C)(C)NC(=O)c2ccc(C(F)(F)F)cc2)CC1=O [Example 25] ?
Result: fulfilled

Q: Does the reported viability at 4 days, 1 µM of the following compound sit strictly below 4%? Cc1nc(C)c(C(=O)NC(C)(C)C(=O)N[C@@]23CC[C@]4(C)[C@H](CC[C@@H]5[C@@]6(C)CC[C@H](OC(=O)[C@H]7C[C@@H](C(=O)O)C7(C)C)C(C)(C)[C@@H]6CC[C@]54C)C2=C(C(C)C)C(=O)C3)s1 [Example 14]
Result: fulfilled

Q: Problem: For the compound CC(C)C1=C2[C@H]3CC[C@@H]4[C@@]5(C)CC[C@H](OC(=O)[C@H]6C[C@@H](C(=O)O)C6(C)C)C(C)(C)[C@@H]5CC[C@@]4(C)[C@]3(C)CC[C@@]2(NC(=O)C(C)(C)NC(=O)c2ccoc2)CC1=O [Example 24] , is viability at 4 days, 1 µM under 4%?
Result: not fulfilled

Q: Is viability at 4 days, 1 µM strictly under 4% for the entry CC(C)C1=C2[C@H]3CC[C@@H]4[C@@]5(C)CC[C@H](OC(=O)[C@H]6C[C@@H](C(=O)O)C6(C)C)C(C)(C)[C@@H]5CC[C@@]4(C)[C@]3(C)CC[C@@]2(NC(=O)C(C)(C)NC(=O)c2ccc3ccccc3n2)CC1=O [Example 28] ?
Result: not fulfilled

Q: Identify whether the compound CCN1CCN(CC(=O)NC(C)(C)C(=O)N[C@@]23CC[C@]4(C)[C@H](CC[C@@H]5[C@@]6(C)CC[C@H](OC(=O)[C@H]7C[C@@H](C(=O)O)C7(C)C)C(C)(C)[C@@H]6CC[C@]54C)C2=C(C(C)C)C(=O)C3)CC1 [Example 9] records viability at 4 days, 1 µM below 4%.
Result: not fulfilled

Q: Determine whether this compound shows viability at 4 days, 1 µM lower than 4% (ties excluded): CC(C)C1=C2[C@H]3CC[C@@H]4[C@@]5(C)CC[C@H](OC(=O)[C@H]6C[C@@H](C(=O)O)C6(C)C)C(C)(C)[C@@H]5CC[C@@]4(C)[C@]3(C)CC[C@@]2(NC(=O)C(C)(C)NC(=O)CN2CCS(=O)(=O)CC2)CC1=O [Example 34]
Result: fulfilled

Q: Find out if reported viability at 4 days, 1 µM for Cc1ccc(C(=O)NC2(C(=O)N[C@@]34CC[C@]5(C)[C@H](CC[C@@H]6[C@@]7(C)CC[C@H](OC(=O)[C@H]8C[C@@H](C(=O)O)C8(C)C)C(C)(C)[C@@H]7CC[C@]65C)C3=C(C(C)C)C(=O)C4)CC2)cc1 [Example 40] is less than 4%
Result: fulfilled

Q: Below 4% on viability at 4 days, 1 µM? Entry CCOC(=O)NC(C)(C)C(=O)N[C@@]12CC[C@]3(C)[C@H](CC[C@@H]4[C@@]5(C)CC[C@H](OC(=O)[C@H]6C[C@@H](C(=O)O)C6(C)C)C(C)(C)[C@@H]5CC[C@]43C)C1=C(C(C)C)C(=O)C2 [Example 64]
Result: fulfilled
